meta.source: PubChem BioAssay (EPA / NIEHS)

Experiment: ATG_NFI_CIS: Attagene CIS-FACTORIAL HepG2 Assay for human Nuclear Factor I (NFI) (AID 2282989)
Conditions: HepG2 cis-regulatory reporter, NFI response element transcription; actives raise or lower the signal
Activity calls are given as the source filed them. The calls were made as follows: active = hit-call score of the fitted dose curve at least 0.9, where 1 is the maximum; inactive = score below 0.9.
Classes to choose from: active, inactive

Problem: Assay outcome for "CCc1nn(C)c(C(=O)NCc2ccc(C(C)(C)C)cc2)c1Cl" : what was it?
Result: active

Problem: Now the compound "N#Cc1cc(Br)c(O)c(Br)c1"
Result: active

Problem: Now the compound C#CCOS(=O)OC1CCCCC1Oc1ccc(C(C)(C)C)cc1 (stereo unspecified)
Result: inactive

Problem: Now the compound Cc1c(F)c(F)c(COC(=O)C2C(/C=C(\Cl)C(F)(F)F)C2(C)C)c(F)c1F (stereo unspecified)
Result: inactive

Problem: Now the compound "CNC(=S)S"
Result: inactive

Problem: Now the compound "Oc1ccccc1-c1ccccc1"
Result: inactive

----------
Molecular target: human Dopamine Transporter (DAT), SLC6A3 (gene 6531)
Test: NVS_TR_hDAT: NovaScreen (NVS) Transporter Assay for human Dopamine Transporter (DAT) (AID 2283374);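 also: activity means loss of bound radioligand signal relative to DMSO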
Records with an inconclusive call do not appear. Active and inactive are the calls of the source. The calls were made as follows: active = hit-call score of the fitted dose curve at least 0.9, where 1 is the maximum; inconclusive = response in the unintended direction; inactive = score below 0.9.
Classes to choose from: t = active, f = inactive

Problem: Assay outcome for "Fc1ccc(Oc2ccnc3cc(Cl)cc(Cl)c23)cc1" : what was it?
Result: t

Problem: Now the molecule "CC1=C(C(=O)Nc2ccccc2)SCCO1"
Result: t

Problem: Now the molecule "CCOc1cc(Oc2ccc(C(F)(F)F)cc2Cl)ccc1[N+](=O)[O-]"
Result: t

Problem: Now the molecule "CCCCOC(=O)c1ccccc1C(=O)OCCCC"
Result: f

Problem: Now the molecule CC1COC(Cn2cncn2)(c2ccc(Oc3ccc(Cl)cc3)cc2Cl)O1 (stereo not drawn)
Result: t

Problem: Now the molecule C#CCOS(=O)OC1CCCCC1Oc1ccc(C(C)(C)C)cc1 (stereo not drawn)
Result: t

Problem: Now the molecule "CCc1nn(C)c(C(=O)NCc2ccc(C(C)(C)C)cc2)c1Cl"
Result: t

Problem: Now the molecule "COc1ccc(C(c2ccc(OC)cc2)C(Cl)(Cl)Cl)cc1"
Result: f

----------
Read-out: Monokine induced gamma interferon (MIG), CXCL9 (gene 4283)
Assay: BSK_CASM3C_MIG: BioMAP Diversity Plus: CASM3C Assay for Monokine induced gamma interferon (MIG) Biomarker Activity (AID 2283048);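 also: MIG protein level measured by ELISA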
Conditions: primary human coronary artery smooth muscle cells; actives raise or lower the signal
Active and inactive are the calls of the source. How the source made its calls: active means hit-call score of the fitted dose curve at least 0.9, where 1 is the maximum; inactive means score below 0.9.
Classes to choose from: class 1 = active, class 0 = inactive

Problem: Assay outcome for "CCCCNC(=O)n1c(NC(=O)OC)nc2ccccc21" : what was it?
Result: class 0

Problem: Now the compound "CN(C)C(=S)SSC(=S)N(C)C"
Result: class 1

Problem: Now the compound "CO/C=C(/C(=O)OC)c1ccccc1Oc1cc(Oc2ccccc2C#N)ncn1"
Result: class 0

Problem: Now the compound COC(=O)C(C)Oc1ccc(Oc2ccc(Cl)cc2Cl)cc1 (centres undefined)
Result: class 0

Problem: Now the compound "COc1nc(C)nc(NC(=O)NS(=O)(=O)c2ccccc2Cl)n1"
Result: class 0

Problem: Now the compound "COC(=O)N(OC)c1ccccc1COc1ccn(-c2ccc(Cl)cc2)n1"
Result: class 0

Problem: Now the compound "Cc1cc(Cl)ccc1OCC(=O)O"
Result: class 0

Problem: Now the compound CCCC1COC(Cn2cncn2)(c2ccc(Cl)cc2Cl)O1 (centres undefined)
Result: class 0

Problem: Now the compound "N#Cc1cc(Br)c(O)c(Br)c1"
Result: class 0
